Where these numbers come from: paper PMC6210075

Experimental target: rat sEH (Rattus norvegicus, UniProt P80299)
Sequence (P80299 1-554): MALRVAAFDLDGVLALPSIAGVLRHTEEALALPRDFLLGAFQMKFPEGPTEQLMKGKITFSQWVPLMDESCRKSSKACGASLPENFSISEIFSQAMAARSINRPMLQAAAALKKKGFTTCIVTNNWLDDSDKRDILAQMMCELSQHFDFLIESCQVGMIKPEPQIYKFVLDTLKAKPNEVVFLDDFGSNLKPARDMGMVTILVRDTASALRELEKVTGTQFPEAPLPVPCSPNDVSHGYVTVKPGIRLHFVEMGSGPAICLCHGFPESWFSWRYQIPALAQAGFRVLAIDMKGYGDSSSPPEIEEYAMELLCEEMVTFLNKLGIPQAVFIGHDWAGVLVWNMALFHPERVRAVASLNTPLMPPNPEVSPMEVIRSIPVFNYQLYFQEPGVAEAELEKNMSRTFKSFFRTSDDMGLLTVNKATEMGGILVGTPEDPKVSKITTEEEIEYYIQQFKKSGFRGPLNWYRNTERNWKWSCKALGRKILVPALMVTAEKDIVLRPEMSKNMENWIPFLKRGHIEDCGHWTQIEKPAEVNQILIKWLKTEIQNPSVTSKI
Test summary: sEH fluorescent inhibition assay, recombinant rat sEH
Recorded endpoint: pIC50
In plain terms, pIC50 is the concentration in mol/L turned into minus its base-10 logarithm.

Memo: O=C(Nc1ccc(C(F)(F)F)cc1F)N1CCC(Cc2cccc(Oc3ccc(C(F)(F)F)cn3)c2)CC1 , reported pIC50: 6.62

* * *

Experimental target: serine hydrolases (Mus musculus)
Sequence (O08914 whole entry): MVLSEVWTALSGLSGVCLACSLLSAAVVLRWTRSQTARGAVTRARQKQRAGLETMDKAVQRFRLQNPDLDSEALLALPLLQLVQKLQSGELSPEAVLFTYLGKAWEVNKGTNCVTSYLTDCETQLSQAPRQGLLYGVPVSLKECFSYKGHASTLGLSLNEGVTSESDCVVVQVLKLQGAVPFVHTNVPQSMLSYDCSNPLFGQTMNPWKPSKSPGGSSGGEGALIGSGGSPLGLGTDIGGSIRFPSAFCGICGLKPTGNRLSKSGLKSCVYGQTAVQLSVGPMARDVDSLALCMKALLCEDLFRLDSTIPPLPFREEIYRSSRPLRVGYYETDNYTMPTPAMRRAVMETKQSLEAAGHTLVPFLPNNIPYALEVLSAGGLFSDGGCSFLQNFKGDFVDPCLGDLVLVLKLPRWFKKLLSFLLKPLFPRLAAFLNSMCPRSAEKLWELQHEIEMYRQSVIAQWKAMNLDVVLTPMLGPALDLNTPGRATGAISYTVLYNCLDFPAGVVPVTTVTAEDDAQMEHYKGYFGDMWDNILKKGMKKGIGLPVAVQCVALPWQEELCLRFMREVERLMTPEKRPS
Test summary: Activity-based protein profiling
Assay type: biochemical
Details: mouse brain tissue homogenate, inhibitor 20 µM
Recorded endpoint: intensity of the FAAH band (ABPP)

Compound	Experimental target	Recorded endpoint	Recorded measurement
O=C(Nc1cccnc1)N1CCC(Cc2cccc(Oc3ccc(C(F)(F)F)cn3)c2)CC1 [PF-3845, reference compound]	serine hydrolases (Mus musculus)	intensity of the FAAH band (ABPP)	reduced
NC(=O)c1cccc(-c2cccc(OC(=O)NC3CCCCC3)c2)c1 [URB597, reference compound]	serine hydrolases (Mus musculus)	intensity of the FAAH band (ABPP)	reduced

* * *

Target sequence: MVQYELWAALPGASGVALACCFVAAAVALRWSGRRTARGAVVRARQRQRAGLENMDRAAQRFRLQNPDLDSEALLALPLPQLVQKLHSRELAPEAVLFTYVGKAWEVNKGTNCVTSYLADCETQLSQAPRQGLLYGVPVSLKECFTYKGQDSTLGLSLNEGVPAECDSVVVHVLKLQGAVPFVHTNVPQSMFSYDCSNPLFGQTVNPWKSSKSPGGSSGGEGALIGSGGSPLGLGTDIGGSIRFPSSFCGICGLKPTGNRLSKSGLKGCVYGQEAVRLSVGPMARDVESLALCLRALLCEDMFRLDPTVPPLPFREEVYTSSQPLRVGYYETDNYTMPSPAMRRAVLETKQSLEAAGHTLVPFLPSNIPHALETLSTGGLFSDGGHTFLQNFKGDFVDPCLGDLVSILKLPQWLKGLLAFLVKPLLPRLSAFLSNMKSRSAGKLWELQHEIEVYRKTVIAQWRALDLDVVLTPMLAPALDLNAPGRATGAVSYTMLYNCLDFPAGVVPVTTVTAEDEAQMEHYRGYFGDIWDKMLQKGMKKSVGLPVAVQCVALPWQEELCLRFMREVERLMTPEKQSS
Recorded endpoint: IC50 (pM)
# unit: pM | format: bare number

Memo: O=C(Nc1cccnc1)N1CCC(Cc2cccc(Oc3ccc(C(F)(F)F)cn3)c2)CC1 [PF-3845, reference compound] , reported IC50: 650

* * *

Test summary: Water solubility
Type: physicochemical
Details: DI water, 37 °C, thermodynamic from solid
Recorded endpoint: solubility at 2 days (nM)
# unit: nM | format: bare number

Memo: O=C(Nc1ccc(C(F)(F)F)cc1F)N1CCC(Cc2cccc(Oc3ccc(C(F)(F)F)cn3)c2)CC1 [compound 18] , reported solubility at 2 days: 2.8
